Just for reference, the supplement of paper PMC10567573 is where these values come from.

B1: FAM164C (parent)
chain: YPHCTGISQQDPESDSQGQGNGLF

variants of: B1; test: protein stability index of a GFP-peptide fusion (GPS, HEK-293T) (PSI 1-6); higher = more stable; settings: c terminus: a fixed tail appended;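 also: lentivirally expressed fusions sorted by FACS into six bins by GFP to DsRed ratio, PSI derived from sequencing read proportions per bin multiplied by bin number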
# binarize protein stability index: threshold 3 inclusive, high side 1, low side 0

YPQCTGISQQDPESDSQGQGNGLF [H3Q]: 1
YPHCTGISQQDPCSDSQGQGNGLF [E13C]: 1
YPHCTGISQQDPESDSQGQGNGDF [L23D]: 1
YPVCTGISQQDPESDSQGQGNGLF [H3V]: 1
YPHCTGIWQQDPESDSQGQGNGLF [S8W]: 0
